# assayedTarget: T1, recombinant human CD83 extracellular domain with His tag (hCD83ECD-His) (human, UniProt Q01151 20-144)
# T1 construct: extracellular domain; Expressed in CHO cells and purified by IMAC; also called recombinant human CD83ECD-His; recombinant CD83; not shown: His tag
# T1 sequence (looked up): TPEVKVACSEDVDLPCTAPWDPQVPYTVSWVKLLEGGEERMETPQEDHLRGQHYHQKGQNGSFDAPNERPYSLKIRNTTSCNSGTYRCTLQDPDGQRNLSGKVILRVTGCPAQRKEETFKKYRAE
# protocolDescription: BiaCore SPR, Fab over immobilised hCD83ECD, 1:1 model with mass transfer
testReadout: koff (s⁻¹)
Respond with the bare value in s⁻¹.

// solved cases for koff follow
{"binder": "3C12.E Fab fragment (Fab, V domains shown) VH: EVQLQESGGGVVQPGRSLRLSCAASGFTFSSYAMHWVRQAPGKGLEWVAVISYDGSNKYYADSVKGRFTISRDNSKNTLYLQMNSLRAEDTAMYYCARHYYYGMDVWGQGTTLTVSS VL: EIVLTQSPSSLSASVGDRVTITCRASQGISNYLAWYQQKPGKVPKLLIYAASTLQSGVPSRFSGSGSGTHFTLTISSLQPEDVATYYCQKCNSAPYTFGQGTKVELKR", "resultUnits": "s⁻¹", "quantitativeReadout": 0.05}
{"binder": "3C12.WT Fab fragment (Fab, V domains shown, also called 3C12 Fab; wildtype 3C12 Fab) VH: EVQLQESGGGVVQPGRSLRLSCAASGFTFSSYAMHWVRQAPGKGLEWVAVISYDGSNKYYADSVKGRFTISRDNSKNTLYLQMNSLRAEDTAMYYCARHYYYGMDVWGQGTTLTVSS VL: EIVMTQSPSLLSASLGDRVTITCRASQGIKNYFAWYQQRPGKAPKLLIYATSNLQSGVPSRFSGSGSGTEFTLTISSLQPEDFATYYCQQLGAYPLTFGGGTKLELKR", "resultUnits": "s⁻¹", "quantitativeReadout": 0.12}

Kindly review the next binder as well.
IN: Look up koff for this binder: 3C12.D Fab fragment (Fab, V domains shown) VH: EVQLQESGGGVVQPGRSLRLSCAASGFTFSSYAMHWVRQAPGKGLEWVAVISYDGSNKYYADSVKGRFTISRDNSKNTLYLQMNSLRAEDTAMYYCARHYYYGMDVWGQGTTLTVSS VL: EIQMTQSPSSLSASVGDRVTITCRASQGISSWLAWYQQKPGKAPKLLIYAASSLQSGVPSRFSGSGSGTEFTLTISSLQPDDFATYYCQKLSSYPYTFGGGTKVELKR
OUT: 0.027
